- studySystem: T1, Chymase, from human skin (human, UniProt P23946 22-247)
- T1 sequence (looked up): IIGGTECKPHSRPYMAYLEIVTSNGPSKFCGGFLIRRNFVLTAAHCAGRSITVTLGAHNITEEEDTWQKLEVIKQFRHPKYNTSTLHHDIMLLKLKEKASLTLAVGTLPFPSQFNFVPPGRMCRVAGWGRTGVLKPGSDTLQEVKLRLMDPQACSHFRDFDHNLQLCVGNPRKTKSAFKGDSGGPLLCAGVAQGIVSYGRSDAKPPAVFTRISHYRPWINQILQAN
- measurementProtocol: cell-based or functional assay
Provide the recorded % inhibition at 100 µM for the entries that follow.
Numbers only, in %.

binder	measure	recordedMeasurement
FCTKSDPPXCS (HELM PEPTIDE1{F.C.T.K.S.D.P.P.[Cha].C.S.[dP].P}$PEPTIDE1,PEPTIDE1,2:R3-10:R3|PEPTIDE1,PEPTIDE1,1:R1-13:R2$$$V2.0; SMILES C[C@@H](O)[C@@H]1NC(=O)[C@@H]2CSSC[C@H](NC(=O)[C@H](CC3CCCCC3)NC(=O)[C@@H]3CCCN3C(=O)[C@@H]3CCCN3C(=O)[C@H](CC(=O)O)NC(=O)[C@H](CO)NC(=O)[C@H](CCCCN)NC1=O)C(=O)N[C@@H](CO)C(=O)N1CCC[C@@H]1C(=O)N1CCC[C@H]1C(=O)N[C@@H](Cc1ccccc1)C(=O)N2) [Example 16]	% inhibition at 100 µM	12.9

Moving on to the next binder.
Reported % inhibition at 100 µM for ICTKSDPPYCR (HELM PEPTIDE1{I.C.T.K.S.D.P.P.Y.C.R.[dP].P}$PEPTIDE1,PEPTIDE1,2:R3-10:R3|PEPTIDE1,PEPTIDE1,1:R1-13:R2$$$V2.0; SMILES CC[C@H](C)[C@@H]1NC(=O)[C@@H]2CCCN2C(=O)[C@H]2CCCN2C(=O)[C@H](CCCNC(=N)N)NC(=O)[C@@H]2CSSC[C@H](NC1=O)C(=O)N[C@@H]([C@@H](C)O)C(=O)N[C@@H](CCCCN)C(=O)N[C@@H](CO)C(=O)N[C@@H](CC(=O)O)C(=O)N1CCC[C@H]1C(=O)N1CCC[C@H]1C(=O)N[C@@H](Cc1ccc(O)cc1)C(=O)N2) [Example 18] was 32.5
